# key: entry, value: Wheat plant response rating
Test system: wheat (Triticum aestivum)
test name: Test B pre-/postemergence
Format: in vivo
condition details: Rate 62 g/ha, Preemergence
Method: […] At the same time, these crop and weed species were also treated with postemergence applications of test chemicals formulated in the same manner. […] Treated plants and controls were maintained in a greenhouse for twelve to sixteen days, after which all species were compared to controls and visually evaluated. […]
API note: the answer field is a bare number with no unit suffix.

Cc1cnc(-c2ccc(C(F)(F)F)cc2)nc1Cc1cccc(C(F)(F)F)c1 ... 1
Cc1cnc(-c2cccc(C(F)(F)F)c2)nc1Cc1cccc(C#N)c1 ... 0
Cc1cnc(-n2cnc(C(F)(F)F)c2)nc1Cc1cccc(C(F)(F)F)c1 ... 0
Cc1cnc(-c2ccc(Cl)cc2F)nc1Cc1cccc(C(F)(F)F)c1 ... 0
Cc1cnc(-c2ccc(C(F)(F)F)cc2)nc1C(Cl)c1cccc(C(F)(F)F)c1 (racemic) ... 0
Cc1cnc(-c2ccc(Cl)c(Cl)c2)nc1Cc1cccc(C(F)(F)F)c1 ... 0
Cc1cnc(-c2ccc(Cl)cc2)nc1Cc1cccc(C#N)c1 ... 0
Cc1cnc(-c2ccc(C#N)cc2)nc1Cc1cccc(C(F)(F)F)c1 ... 0
Cc1cnc(-c2ccc(F)cc2F)nc1Cc1cccc(C(F)(F)F)c1 ... 0
COC(c1cccc(C(F)(F)F)c1)c1nc(-c2ccc(C(F)(F)F)cc2)ncc1C (racemic) ... 0

Entry "Cc1cnc(-c2ccc(C#N)cc2)nc1Cc1cccc(C#N)c1" ; assay system wheat (Triticum aestivum); Wheat plant response rating recorded at 0

Entry "Cc1cnc(-c2ccc(C(F)(F)F)cc2)nc1Cn1cnc(C(F)(F)F)n1" ; assay system wheat (Triticum aestivum); Wheat plant response rating recorded at 0

Entry "Cc1cnc(-c2ccccc2F)nc1Cc1cccc(C#N)c1" ; assay system wheat (Triticum aestivum); Wheat plant response rating recorded at 0

Entry "Cc1cnc(-c2ccc(C(F)(F)F)cc2)nc1Cc1cccc(OC(F)(F)F)c1" ; assay system wheat (Triticum aestivum); Wheat plant response rating recorded at 2

Entry "CCc1cnc(-c2ccc(C(F)(F)F)cc2)nc1Cc1cccc(OC(F)(F)F)c1" ; assay system wheat (Triticum aestivum); Wheat plant response rating recorded at 1

Entry COC(=O)C(c1cccc(C(F)(F)F)c1)c1nc(-c2ccc(C(F)(F)F)cc2)ncc1C (racemic) ; assay system wheat (Triticum aestivum); Wheat plant response rating recorded at 0

Entry "CCc1cnc(-n2ccc(C(F)(F)F)n2)nc1Cc1cccc(OC(F)(F)F)c1" ; assay system wheat (Triticum aestivum); Wheat plant response rating recorded at 2

Entry "COc1cnc(-c2ccc(C(F)(F)F)cc2)nc1Cc1cccc(C(F)(F)F)c1" ; assay system wheat (Triticum aestivum); Wheat plant response rating recorded at 2

====

System: bedstraw (Galium aparine)
test name: Test B pre-/postemergence
Type: in vivo
Set-up: key: 0 is no effect; 10 is complete control
condition details: Rate 500 g/ha, Postemergence
assay readout: Plant response rating, Bedstraw
API note: the answer field is a bare number with no unit suffix.

Use these answered entries as a reference point.
Cc1cnc(-c2ccc(C(F)(F)F)cc2)nc1Cn1ccc(C(F)(F)C(F)(F)F)n1 [Compound 14] ... 10
Cc1cnc(-n2cnc(C(F)(F)F)c2)nc1C(=O)c1cccc(OC(F)(F)F)c1 [Compound 63] ... 8
Cc1cnc(-c2ccc(C(F)(F)F)cc2)nc1C(=O)c1ccc(C(F)(F)F)cc1 [Compound 74] ... 6

Could you now look at the following molecule, please?
// Plant response rating, Bedstraw lookup, molecule = Cc1cnc(-c2ccccc2)nc1Cn1ccc(C(F)(F)F)n1 [Compound 7] , result: 3

Measured values drawn from patent US6525001B1 for this set.
